B1: Caulobacter ParB omega fusion; a variant is named by its letters at X, in order, B8GW30 (parent)
chain: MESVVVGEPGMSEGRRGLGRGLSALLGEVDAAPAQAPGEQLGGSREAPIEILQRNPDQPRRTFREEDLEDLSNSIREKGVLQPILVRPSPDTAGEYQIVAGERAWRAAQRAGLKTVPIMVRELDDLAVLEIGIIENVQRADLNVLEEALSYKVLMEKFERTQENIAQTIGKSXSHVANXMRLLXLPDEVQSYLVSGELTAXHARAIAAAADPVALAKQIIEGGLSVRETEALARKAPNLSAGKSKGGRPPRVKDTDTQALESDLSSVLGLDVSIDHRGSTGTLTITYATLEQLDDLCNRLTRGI

Variants of: B1
Protocol Notes: one-hybrid fitness for binding NBS DNA (the Noc-binding site; scaled: cognate 1, non-cognate 0); higher = stronger binding
Reported Conditions: with NBS DNA site
In all, about 81,000 sequences were measured (“one-hybrid fitness for binding NBS DNA”: median about -0.1, highest 2% from about 0.36 on). This is one part of a sample in which the highest values are shown more often than they occur.
Metric Name: one-hybrid fitness for binding NBS DNA
Respond with the number and no other words.

Item QCDS has what recorded one-hybrid fitness for binding NBS DNA?
0.28

Same lookup for CWIG , please.
0.406

Same again, this time with QCKI
0.405

Now this one: QCPS
0.299

Same question, QSYS this time
0.337

Now this one: QCYS
0.432

Subsequent entry: QCIS
0.364

How about this variant: RKRK
0.222

# repeat for QSRS
0.64
